The values you see were collected from patent US20030013041A1.

- PROTOCOL TEXT: Absorption spectrum measured in solution
- Type: physicochemical
- STATED CONDITIONS: in methylene chloride
PROPERTY NAME: λmax (methylene chloride) (nm)

[[record]]
smiles_input = "CN(C)c1ccc(/C=C2\\SC(=[N+]3CCOCC3)N=C2c2ccccc2)cc1"
property_name = "λmax (methylene chloride)"
scale_unit = "nm"
recorded_number = 601

[[record]]
smiles_input = "CCCCN(CCCC)c1ccc(/C=C/C2=[N+](C)c3ccccc3C2(C)C)s1"
property_name = "λmax (methylene chloride)"
scale_unit = "nm"
recorded_number = 543

[[record]]
smiles_input = "C(=C1/SC(=[N+]2CCOCC2)N=C1c1ccccc1)/c1sc(N2CCOCC2)nc1-c1ccccc1"
property_name = "λmax (methylene chloride)"
scale_unit = "nm"
recorded_number = 587

[[record]]
smiles_input = "CN(c1ccccc1)c1nc2c(s1)C=C1S/C(=[N+](\\C)c3ccccc3)N=C1C2(C)C"
property_name = "λmax (methylene chloride)"
scale_unit = "nm"
recorded_number = 623

[[record]]
smiles_input = "CC1(C)C2=NC(=[N+]3CCCC3)SC2=Cc2sc(N3CCCC3)nc21"
property_name = "λmax (methylene chloride)"
scale_unit = "nm"
recorded_number = 616


====

- PROTOCOL TEXT: Absorption spectrum measured in solution
- Assay type: physicochemical
- STATED CONDITIONS: at λmax in methylene chloride
PROPERTY NAME: ε (L/mol/cm)

[[record]]
compound = "CC1(C)C2=NC(=[N+]3CCCC3)SC2=Cc2sc(N3CCCC3)nc21 [Example 7]"
scale_unit = "L/mol/cm"
recorded_number = 37153

[[record]]
compound = "CN(c1ccccc1)c1nc2c(s1)C=C1S/C(=[N+](\\C)c3ccccc3)N=C1C2(C)C [Example 8]"
scale_unit = "L/mol/cm"
recorded_number = 43650


====

- PROTOCOL TEXT: Absorption spectrum measured in solution
- Type: physicochemical
- STATED CONDITIONS: on the short wavelength flank
PROPERTY NAME: λ1/2-λ1/10 (short wavelength flank) (nm)

Before answering, review these 3 worked examples.
[[record]]
compound = "C(=C1/SC(=[N+]2CCOCC2)N=C1c1ccccc1)/c1sc(N2CCOCC2)nc1-c1ccccc1 [Example 1]"
property_name = "λ1/2-λ1/10 (short wavelength flank)"
recorded_number = 42

[[record]]
compound = "CN(C)c1ccc(/C=C/C2=[N+](C)c3ccccc3C2(C)C)o1 [Example 2]"
property_name = "λ1/2-λ1/10 (short wavelength flank)"
recorded_number = 41

[[record]]
compound = "CN(C)c1ccc(/C=C2\\SC(=[N+]3CCOCC3)N=C2c2ccccc2)cc1 [Example 4]"
property_name = "λ1/2-λ1/10 (short wavelength flank)"
recorded_number = 42


I = CCCCN(CCCC)c1ccc(/C=C/C2=[N+](C)c3ccccc3C2(C)C)s1 [Example 3]
II = CC1(C)C2=NC(=[N+]3CCCC3)SC2=Cc2sc(N3CCCC3)nc21 [Example 7]
Returns the identifier with the smallest measured λ1/2-λ1/10 (short wavelength flank) among I and II . # answer = label of selected item
I

====

- PROTOCOL TEXT: Absorption spectrum measured in solution
- Type: physicochemical
- STATED CONDITIONS: on the long wavelength flank
PROPERTY NAME: λ1/2-λ1/10 (long wavelength flank) (nm)

Before answering, review these 3 worked examples.
[[record]]
compound = "C(=C1/SC(=[N+]2CCOCC2)N=C1c1ccccc1)/c1sc(N2CCOCC2)nc1-c1ccccc1 [Example 1]"
property_name = "λ1/2-λ1/10 (long wavelength flank)"
scale_unit = "nm"
recorded_number = 14.5

[[record]]
compound = "CCCCN(CCCC)c1ccc(/C=C/C2=[N+](C)c3ccccc3C2(C)C)s1 [Example 3]"
property_name = "λ1/2-λ1/10 (long wavelength flank)"
scale_unit = "nm"
recorded_number = 14

[[record]]
compound = "CC1(C)C2=NC(=[N+]3CCCC3)SC2=Cc2sc(N3CCCC3)nc21 [Example 7]"
property_name = "λ1/2-λ1/10 (long wavelength flank)"
scale_unit = "nm"
recorded_number = 27


A = CN(C)c1ccc(/C=C/C2=[N+](C)c3ccccc3C2(C)C)o1 [Example 2]
B = CN(C)c1ccc(/C=C2\SC(=[N+]3CCOCC3)N=C2c2ccccc2)cc1 [Example 4]
Between A and B , whose measured λ1/2-λ1/10 (long wavelength flank) reads higher? # answer = label of selected item
A
(A: 30 nm, B: 19 nm)
